TARGET OR TEST SYSTEM: Receptor-type tyrosine-protein phosphatase C (Homo sapiens) (UniProt P08575)
Sequence (P08575 whole entry): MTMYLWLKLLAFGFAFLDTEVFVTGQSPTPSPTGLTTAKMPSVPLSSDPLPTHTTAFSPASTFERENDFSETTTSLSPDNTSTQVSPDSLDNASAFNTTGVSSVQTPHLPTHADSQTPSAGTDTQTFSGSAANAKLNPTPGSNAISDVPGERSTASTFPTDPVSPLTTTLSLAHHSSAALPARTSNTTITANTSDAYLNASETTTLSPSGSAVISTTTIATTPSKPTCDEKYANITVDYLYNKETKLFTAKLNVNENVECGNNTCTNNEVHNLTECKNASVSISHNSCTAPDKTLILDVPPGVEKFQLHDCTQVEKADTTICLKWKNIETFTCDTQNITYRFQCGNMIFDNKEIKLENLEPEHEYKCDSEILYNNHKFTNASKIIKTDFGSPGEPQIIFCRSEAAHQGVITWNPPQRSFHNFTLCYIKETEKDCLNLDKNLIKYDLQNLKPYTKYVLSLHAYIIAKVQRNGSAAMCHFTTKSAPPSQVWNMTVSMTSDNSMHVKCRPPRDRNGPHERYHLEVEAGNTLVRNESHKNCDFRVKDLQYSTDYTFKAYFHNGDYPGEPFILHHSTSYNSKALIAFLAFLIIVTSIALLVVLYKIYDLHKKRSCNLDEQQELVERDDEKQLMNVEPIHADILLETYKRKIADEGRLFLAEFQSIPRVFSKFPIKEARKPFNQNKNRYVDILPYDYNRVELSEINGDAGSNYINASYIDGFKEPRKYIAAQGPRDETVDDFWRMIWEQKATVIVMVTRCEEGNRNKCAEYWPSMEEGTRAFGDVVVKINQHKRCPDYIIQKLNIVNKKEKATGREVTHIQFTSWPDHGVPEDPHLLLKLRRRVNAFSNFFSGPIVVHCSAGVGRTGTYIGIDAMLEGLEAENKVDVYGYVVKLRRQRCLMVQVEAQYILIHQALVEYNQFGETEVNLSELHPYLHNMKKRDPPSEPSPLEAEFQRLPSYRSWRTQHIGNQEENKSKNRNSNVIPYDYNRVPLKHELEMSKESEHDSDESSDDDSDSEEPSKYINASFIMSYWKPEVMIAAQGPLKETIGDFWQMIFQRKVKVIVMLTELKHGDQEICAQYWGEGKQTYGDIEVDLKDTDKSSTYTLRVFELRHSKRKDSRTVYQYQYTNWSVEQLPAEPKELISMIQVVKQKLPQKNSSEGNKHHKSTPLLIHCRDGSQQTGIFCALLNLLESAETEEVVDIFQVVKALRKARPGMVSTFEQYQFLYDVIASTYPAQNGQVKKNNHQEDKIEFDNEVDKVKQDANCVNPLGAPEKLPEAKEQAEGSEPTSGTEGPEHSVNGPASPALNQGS
ASSAY NAME: Compound was evaluated for inhibition of CD45 protein-tyrosine phosphatase at a concentration of 500 uM)
Some compounds, each annotated with its measured inhibition.
READOUT KIND: inhibition (%)

smiles_notation=O=P(O)(O)C(F)(F)c1ccc2cccc(C(F)(F)P(=O)(O)O)c2c1 unit=% experimental_value=99
smiles_notation=O=P(O)(O)C(F)(F)c1ccc2c(C(F)(F)P(=O)(O)O)cccc2c1 unit=% experimental_value=70
smiles_notation=O=P(O)(O)C(F)(F)c1ccc2cc(C(F)(F)P(=O)(O)O)ccc2c1 unit=% experimental_value=62
smiles_notation=O=P(O)(O)C(F)(F)c1cccc2c(C(F)(F)P(=O)(O)O)cccc12 unit=% experimental_value=26
smiles_notation=O=P(O)(O)C(F)(F)c1cc(C(F)(F)P(=O)(O)O)c2ccccc2c1 unit=% experimental_value=78

* * *

TARGET OR TEST SYSTEM: Receptor-type tyrosine-protein phosphatase C (Homo sapiens, UniProt P08575)
Sequence (P08575 whole entry): as above
ASSAY NAME: Compound was evaluated for 50% inhibition of CD45 using uM)
READOUT KIND: IC50 (µM)

smiles_notation=O=P(O)(O)C(F)(F)c1ccc2ccc(C(F)(F)P(=O)(O)O)cc2c1 target_or_test_system="Receptor-type tyrosine-protein phosphatase C (Homo sapiens, UniProt P08575)" unit=µM reported_relation== experimental_value=180
smiles_notation=O=P(O)(O)C(F)(F)c1ccc2cccc(C(F)(F)P(=O)(O)O)c2c1 target_or_test_system="Receptor-type tyrosine-protein phosphatase C (Homo sapiens, UniProt P08575)" unit=µM reported_relation== experimental_value=27
smiles_notation=O=P(O)(O)C(F)(F)c1cccc2ccccc12 target_or_test_system="Receptor-type tyrosine-protein phosphatase C (Homo sapiens, UniProt P08575)" unit=µM reported_relation=> experimental_value=1000
smiles_notation=O=P(O)(O)C(F)(F)c1ccc2ccccc2c1 target_or_test_system="Receptor-type tyrosine-protein phosphatase C (Homo sapiens, UniProt P08575)" unit=µM reported_relation=> experimental_value=1000

* * *

Sequence of the target: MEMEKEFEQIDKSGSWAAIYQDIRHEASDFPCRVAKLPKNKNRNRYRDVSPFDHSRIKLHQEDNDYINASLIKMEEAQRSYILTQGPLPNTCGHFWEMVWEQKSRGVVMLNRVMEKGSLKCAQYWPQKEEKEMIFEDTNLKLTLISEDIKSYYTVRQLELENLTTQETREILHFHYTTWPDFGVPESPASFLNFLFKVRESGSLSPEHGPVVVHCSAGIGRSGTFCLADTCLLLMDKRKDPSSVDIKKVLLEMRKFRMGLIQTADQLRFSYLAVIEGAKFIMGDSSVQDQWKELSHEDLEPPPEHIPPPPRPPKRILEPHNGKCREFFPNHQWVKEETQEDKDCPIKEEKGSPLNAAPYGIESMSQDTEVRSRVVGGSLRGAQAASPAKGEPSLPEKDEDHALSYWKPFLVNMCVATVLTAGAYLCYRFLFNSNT
pKi: −log10 of the molar value.
READOUT KIND: pKi

smiles_notation=O=P(O)(O)C(F)(F)c1ccc2ccccc2c1 experimental_value=3.71
smiles_notation=O=P(O)(O)C(F)(F)c1cccc2ccccc12 experimental_value=3.59

* * *

ASSAY NAME: Compound was evaluated for inhibition of PP2A at a concentration of 500 uM)
Some compounds, each annotated with its measured inhibition.
READOUT KIND: inhibition

smiles_notation=O=P(O)(O)C(F)(F)c1cccc2c(C(F)(F)P(=O)(O)O)cccc12 readout_kind=inhibition experimental_value=77%
smiles_notation=O=P(O)(O)C(F)(F)c1ccc2cc(C(F)(F)P(=O)(O)O)ccc2c1 readout_kind=inhibition experimental_value=70%
smiles_notation=O=P(O)(O)C(F)(F)c1ccc2cccc(C(F)(F)P(=O)(O)O)c2c1 readout_kind=inhibition experimental_value=61%
smiles_notation=O=P(O)(O)C(F)(F)c1cc(C(F)(F)P(=O)(O)O)c2ccccc2c1 readout_kind=inhibition experimental_value=66%
smiles_notation=O=P(O)(O)C(F)(F)c1ccc2ccc(C(F)(F)P(=O)(O)O)cc2c1 readout_kind=inhibition experimental_value=70%

* * *

TARGET OR TEST SYSTEM: Tyrosine-protein phosphatase non-receptor type 1 (Homo sapiens, UniProt P18031)
ASSAY NAME: Compound was evaluated for 50% inhibition of PTP1B using uM)
pIC50: −log10 of the molar value.
READOUT KIND: pIC50

smiles_notation=O=P(O)(O)C(F)(F)c1cccc2ccccc12 readout_kind=pIC50 experimental_value=3.95
smiles_notation=O=P(O)(O)C(F)(F)c1ccc2cc(C(F)(F)P(=O)(O)O)ccc2c1 readout_kind=pIC50 experimental_value=4.54
smiles_notation=O=P(O)(O)C(F)(F)c1ccc2cccc(C(F)(F)P(=O)(O)O)c2c1 readout_kind=pIC50 experimental_value=3.93

Entry source: ChEMBL document CHEMBL1130746
